tested on: PPARg DBDmut IVT, anti-PPARg (DBD mutation: PPARg1 K132A/R137A, NR concentration 270 nM); assay: PBM binding z-score (relative to random genomic background probes); higher = stronger binding; sequences stand for … in GC…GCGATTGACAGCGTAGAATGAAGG
Recorded PBM binding z-score values for a group of sequences are listed next.
measured endpoint: PBM binding z-score

                      ordered_residues  result_value
 0  CTCAAAAGGTCGTGCTCAGGTGAGTATACCAAAC         0.851
 1  AGAACGAGGGCAAGCTGAGTTGATAGCAGAGTAG        -0.565
 2  ACTAGAAGGCCAAGTTTGGGTCACTCAAACAAAG        -0.287
 3  ATCGAAAGGTCGTGAGGTGAGTGTACAGAAAGGC          0.59
 4  CCGACTGGGGCAAGGTTACCCTAACGCACAGCCA        -0.891
 5  CAAACTAAGTCACCGGAAGGTCAAAGTCCGCATG          1.14
 6  CTGAGTAGGTTATGGGGCATTCAGGCAACGGTGA        -0.059
 7  CCTGCTAGGTCATGGTCAGCTCATCTACAGTATG        -0.157
 8  GCTAGCAGGCCATTTGGGTCACTAAATGACGGGC         -1.18
 9  TCTTGTAGACCAATAGAGGTTAAGAAAGTGCGCT         0.346
10  AATACAGGGTCATCGTAGGGCAGAGTACGCACAG         0.756
11  CGAACTAGGACATTGACAGGACAGTGAATAGTAA         0.241
12  AATACAGGGTCATCGTAGGCCAGAGGACGCACAG          0.83
13  CCGACTGAGGCAAAGGTTACCATACTCAGTACGA        -0.203
14  TCGAGTAGGTTAGGGGCATTCAAAATGGCGTCGA        -0.184
15  TTACCAAGATGAGCTGAGGTCGTTGATCCAACTC        -0.456

Data provenance: the supplement of paper PMC6555819
